Data provenance: the supplement of paper PMC7125110

B1: glmS ribozyme (parent)
chain: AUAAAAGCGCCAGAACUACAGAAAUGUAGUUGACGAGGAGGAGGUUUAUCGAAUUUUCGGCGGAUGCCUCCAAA

- Variants of: B1
- protocol_notes: self-cleavage kobs at 160 uM GlcN6P; higher = faster cleavage; RNA array
- measurement_setup: with glucosamine-6-phosphate
Fewer inactive variants are shown than the library holds.

variant_name | uom | value_operator | self-cleavage kobs at 160 uM GlcN6P
C8A A53U U55G | s⁻¹ | < | 1e-05
A15U U55A | s⁻¹ | = | 0.000472
G43U G60U U69G | s⁻¹ | < | 1e-05
A14G A42G | s⁻¹ | = | 0.00391
C8A C70U | s⁻¹ | < | 1e-05
G13C G40U | s⁻¹ | < | 1e-05
C34U U55C | s⁻¹ | < | 1e-05
A12C A14C | s⁻¹ | = | 4e-05
A6C A14G G29C A39C U54A | s⁻¹ | < | 1e-05
G43C U55G | s⁻¹ | < | 1e-05
U54A A64G | s⁻¹ | = | 0.00313
A14G U45A U49G | s⁻¹ | = | 0.000143
G41A G51C G63U C70G | s⁻¹ | < | 1e-05
U45A U57C | s⁻¹ | = | 3.83e-05
C10U G60U | s⁻¹ | < | 1e-05
U30C U69A | s⁻¹ | = | 5.29e-05
U46A U47C | s⁻¹ | = | 0.000141
A14U G43U G51C | s⁻¹ | < | 1e-05
U31C C67U | s⁻¹ | = | 0.000125
A14G G32U | s⁻¹ | = | 0.000137
G9C G32C | s⁻¹ | < | 1e-05
A14G C70G | s⁻¹ | = | 0.000203
G40C U55A | s⁻¹ | = | 0.000138
G9U G13A | s⁻¹ | < | 1e-05
A42C G43C C68A C71A | s⁻¹ | < | 1e-05
A6U G29A U54G | s⁻¹ | < | 1e-05
C10U A42U | s⁻¹ | < | 1e-05
A14U U31A | s⁻¹ | = | 0.00191
A6G G43A | s⁻¹ | < | 1e-05
A39C C67U | s⁻¹ | = | 7.1e-05
G44U U45G | s⁻¹ | = | 0.00106
G29U C58A | s⁻¹ | = | 3.39e-05
G32A U54A | s⁻¹ | = | 0.000125
C50A C70G | s⁻¹ | = | 0.001
A42C G51C | s⁻¹ | < | 1e-05
G38A A64G | s⁻¹ | < | 1e-05
G29A C67U | s⁻¹ | = | 0.000247
C34A A36G | s⁻¹ | < | 1e-05
A14C U69G | s⁻¹ | = | 6.28e-05
A14C A36C U65G | s⁻¹ | < | 1e-05
A33U A52C | s⁻¹ | < | 1e-05
A15U A52U G66C | s⁻¹ | < | 1e-05
A33U U65A | s⁻¹ | < | 1e-05
G9C A64C | s⁻¹ | < | 1e-05
A15U G32U A36G G43U U65A C67U | s⁻¹ | < | 1e-05
U45C A48U U65G | s⁻¹ | < | 1e-05
